Please provide measured Mean % WT Binding for the entries that follow.
target: human CD33 T223A (human, UniProt P20138 18-364); test: alanine scan, flow cytometry, HEK293-T;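 note: antibody binding to each alanine-substituted CD33 mutant expressed transiently in HEK293-T, read as fluorescence minus background, mean of duplicates, relative to wild-type CD33 set as 100%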
Sequence (P20138 18-364 T223A limits assumed): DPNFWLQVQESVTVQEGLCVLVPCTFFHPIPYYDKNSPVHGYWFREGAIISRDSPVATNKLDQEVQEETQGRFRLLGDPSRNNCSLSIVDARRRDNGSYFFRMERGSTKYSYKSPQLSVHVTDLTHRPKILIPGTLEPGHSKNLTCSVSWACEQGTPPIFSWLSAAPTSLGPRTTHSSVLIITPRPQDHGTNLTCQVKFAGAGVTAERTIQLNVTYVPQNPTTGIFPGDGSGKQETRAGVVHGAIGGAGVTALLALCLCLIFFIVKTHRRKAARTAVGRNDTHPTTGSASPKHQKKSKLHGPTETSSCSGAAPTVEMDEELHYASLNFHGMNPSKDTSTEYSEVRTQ

binder	Mean % WT Binding
Refmab #3 (antibody, V domains shown, In the alanine scan antibodies were used as IgG or Fab) VH: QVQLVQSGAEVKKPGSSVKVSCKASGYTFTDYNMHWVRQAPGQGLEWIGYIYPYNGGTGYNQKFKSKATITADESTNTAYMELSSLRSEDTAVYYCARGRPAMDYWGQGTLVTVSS VL: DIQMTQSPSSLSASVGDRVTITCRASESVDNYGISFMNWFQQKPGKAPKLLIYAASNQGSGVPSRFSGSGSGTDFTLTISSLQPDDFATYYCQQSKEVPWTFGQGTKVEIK	93.5%
Refmab #1 (antibody, V domains shown, In the alanine scan antibodies were used as IgG or Fab; also called hP67.6) VH: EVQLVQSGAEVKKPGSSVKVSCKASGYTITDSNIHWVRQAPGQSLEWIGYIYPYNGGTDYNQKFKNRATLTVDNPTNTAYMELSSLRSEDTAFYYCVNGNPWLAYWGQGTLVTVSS VL: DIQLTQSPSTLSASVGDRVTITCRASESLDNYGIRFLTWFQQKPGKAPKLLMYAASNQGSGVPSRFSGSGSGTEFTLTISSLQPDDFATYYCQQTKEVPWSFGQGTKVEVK	103%
Refmab #2 (antibody, V domains shown, In the alanine scan antibodies were used as IgG or Fab) VH: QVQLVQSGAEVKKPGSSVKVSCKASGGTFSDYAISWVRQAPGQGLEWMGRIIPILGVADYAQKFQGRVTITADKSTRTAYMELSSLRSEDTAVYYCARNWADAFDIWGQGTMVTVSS VL: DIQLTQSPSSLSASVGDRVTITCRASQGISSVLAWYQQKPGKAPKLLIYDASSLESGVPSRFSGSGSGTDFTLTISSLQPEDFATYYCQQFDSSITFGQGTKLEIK	126%

Now look at this entry.
Lookup: Query (binder): Refmab #4 (antibody, V domains shown, In the alanine scan antibodies were used as IgG or Fab) VH: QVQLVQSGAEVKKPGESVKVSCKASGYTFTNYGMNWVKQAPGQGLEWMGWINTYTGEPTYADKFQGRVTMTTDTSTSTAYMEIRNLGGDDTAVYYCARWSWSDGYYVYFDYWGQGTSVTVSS VL: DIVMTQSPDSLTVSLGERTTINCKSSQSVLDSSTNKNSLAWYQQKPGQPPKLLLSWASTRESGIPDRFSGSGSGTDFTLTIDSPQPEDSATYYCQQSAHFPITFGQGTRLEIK ; field requested: Mean % WT Binding
Found: 106%
